These data points were gathered from paper PMC9482650.

# measuredOn: T1, LRRC7, Q96NW7
# T1 sequence (Q96NW7 1440-1537, limits assumed, looked up): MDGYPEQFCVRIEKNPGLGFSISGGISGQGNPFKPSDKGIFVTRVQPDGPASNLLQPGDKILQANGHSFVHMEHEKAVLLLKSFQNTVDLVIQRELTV
# experiment: holdup assay
# Design: key: below the threshold = too weak to quantify, mostly under pKd 3.1 to 4
# settings: plain residues with an end cap or a label only (N-terminal biotin on a linker: ado-ado)
recordedMetric: pKd

Answered examples (5):
> print(dat)
                                  binder           assayvalue
1  LPAHHNATRL [SLC34A1, Q06495;Q06495-1]  below the threshold
2            NHSSSPETTA [TRMT13, Q9NUP7]  below the threshold
3            LRSPRTPSEV [OR10G3, Q8NGC4]                 3.48
4            QSARLWETSI [ADAM22, Q9P0K1]  below the threshold
5              QKNRKAQEDL [CES3, Q6UWW8]  below the threshold

**Q:** Supply reported pKd belonging to this binder: SNAGNTATKA [NOSTRIN, Q8IVI9]
**A:** below the threshold

**Q:** Supply reported pKd belonging to this binder: VDSTVKVWTC [TRAF7, Q6Q0C0]
**A:** below the threshold

**Q:** Supply reported pKd belonging to this binder: PDGQCTVTEV [RNF146, Q9NTX7]
**A:** 3.89
